Source of measurements: the supplement of paper PMC10567573

B1: RTN2 (parent)
chain: SERPLEDLRLRLDHLGWVARGTGS

- Variants of: B1
- measurement.description: protein stability index of a GFP-peptide fusion (GPS, HEK-293T) (PSI 1-6); higher = more stable;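 note: lentivirally expressed fusions sorted by FACS into six bins by GFP to DsRed ratio, PSI derived from sequencing read proportions per bin multiplied by bin number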
- run.conditions: c terminus: a fixed tail appended
reported.endpoint: protein stability index
Give bare numbers.

Recorded protein stability index, per entry:
SERPLERLRLRLDHLGWVARGTGS [D7R]; 1.79
SERPLEDLRLRTDHLGWVARGTGS [L12T]; 3.51
SERPLEDLILRLDHLGWVARGTGS [R9I]; 2.17
SERPLEGLRLRLDHLGWVARGTGS [D7G]; 1.96
SERPLEDLRLRLDHWGWVARGTGS [L15W]; 3.5
SERPLEDKRLRLDHLGWVARGTGS [L8K]; 2.83

Exercise: I am curious: what protein stability index value has been reported for SERPLEDLRLRLDHLGWVARGTIS [G23I] ?
Solution: 3.35
